Target: 6-phosphogluconate dehydrogenase, decarboxylating (Homo sapiens)
Assay: inhibition of human phosphogluconate dehydrogenase – biochemical, recombinant enzyme, NADPH absorbance, primary screen (AID 1159550)
Conditions: recombinant 6PGD, NADPH absorbance 341 nm; at 10 µM; active compounds read high
Below, each entry is listed alongside its reported inhibition.

compound: CCOc1ccc(Cc2nccc3cc(OCC)c(OCC)cc23)cc1OCC
output-unit: %
inhibition: -5.46
//
compound: CCN1CCCC(OC(=O)C(c2ccccc2)c2ccccc2)C1 (configuration not stated)
output-unit: %
inhibition: -9.18
//
compound: Nc1ccc(C(=O)Oc2ccccc2)c(O)c1
output-unit: %
inhibition: -7.23
//
compound: CN(C)CCOC(=O)COc1ccc(Cl)cc1
output-unit: %
inhibition: 17.7
//
compound: CCCCC1C(=O)N(c2ccccc2)N(c2ccccc2)C1=O
output-unit: %
inhibition: 1.47
//
compound: C[n+]1ccccc1/C=N/O
output-unit: %
inhibition: -6.73
//
compound: CCn1cc(C(=O)O)c(=O)c2cc(F)c(N3CCNCC3)nc21
output-unit: %
inhibition: -18.3
//
compound: Nc1ccc(S(=O)(=O)Nc2ccccn2)cc1
output-unit: %
inhibition: 4.06
//
compound: CCCCCCCCCCCCCCCCCCOCC(O)CO (configuration not stated)
output-unit: %
inhibition: -2.18
//
compound: CCCCOc1ccc(OCCCN2CCOCC2)cc1
output-unit: %
inhibition: -17.9
//
compound: COc1c2occc2c(OC)c2c(=O)cc(C)oc12
output-unit: %
inhibition: 1.04
//
compound: C[C@@H]1C[C@H]2[C@@H]3C[C@H](F)C4=CC(=O)C=C[C@]4(C)[C@@]3(F)[C@@H](O)C[C@]2(C)[C@@]1(O)C(=O)CO
output-unit: %
inhibition: 8.65
